target: HLA-A*68:01 (Homo sapiens, UniProt P04439, A269V/D185E/E176V/E277Q/E87N/F33Y/G231S/I121M/I166T/I218V/L180W/L300P/L318F/N151K/P208A/P217A/Q86R/R169H/T345S); assay type: binding
readout.label: Aff A*68:01 (ED50) (E -06 M)
Your answer is read as E -06 M, so omit the unit and give the number.

>>> print(df.to_string())
   biopolymer_sequence       readout_label  unit_symbol  recorded_result
0            QSSFYSDWY  Aff A*68:01 (ED50)      E -06 M                1
1            LSMAGSSAM  Aff A*68:01 (ED50)      E -06 M                1

We now examine a further sequence.
get_value(item= `NFVRSSNLK` , readout=Aff A*68:01 (ED50)) returns 3
